Assay: Lipophilicity, log P of the compound
Format: physicochemical
Conditions: octanol/water
Answer F if logP is under 1, and T if it is 1 or more.

Consider the following illustrative entries.
| COMPOUND | DISCRETE_LABEL |
| --- | --- |
| NS(=O)(=O)c1cc(C(=O)NCc2cccc(Cl)c2Cl)ccc1Cl | T |
| O=C(Nc1ccc([N+](=O)[O-])cc1Cl)c1cc(Cl)ccc1O [NICLOSAMIDE] | T |
| COc1cccc(NC(=O)c2cccc(S(N)(=O)=O)c2)c1 | F |
| CC(C)(C)OC(=O)c1ccc(NC(=O)c2ccc(Cl)c(S(N)(=O)=O)c2)cc1 | T |
| COc1cccc(CNC(=O)c2ccc(Cl)c(S(N)(=O)=O)c2)c1 | T |
| NS(=O)(=O)c1cc(C(=O)Nc2ccc(C(F)(F)F)cc2)ccc1Cl | T |
| NS(=O)(=O)c1cc(C(=O)Nc2ccc([N+](=O)[O-])cc2Cl)ccc1Cl | T |
| COc1cc(NC(=O)c2cccc(S(N)(=O)=O)c2)cc(OC)c1OC | F |

Decide: logP of COc1cc(NC(=O)c2cccc(S(N)(=O)=O)c2)c(C(=O)O)cc1OC >= 1?
F

Also check CC(C)(C)OC(=O)c1ccc(NC(=O)c2cccc(S(N)(=O)=O)c2)cc1
T

Next up: COc1ccccc1CNC(=O)c1ccc(Cl)c(S(N)(=O)=O)c1
T

// query: NS(=O)(=O)c1cccc(NC(=O)c2ccc(Cl)c(S(N)(=O)=O)c2)c1
T

Origin of values: ChEMBL document CHEMBL4811240
